These measurements were taken from ChEMBL document CHEMBL1137060.

A short record of Ki observed with UniProt P23526 follows.
Sequence (P23526 whole entry): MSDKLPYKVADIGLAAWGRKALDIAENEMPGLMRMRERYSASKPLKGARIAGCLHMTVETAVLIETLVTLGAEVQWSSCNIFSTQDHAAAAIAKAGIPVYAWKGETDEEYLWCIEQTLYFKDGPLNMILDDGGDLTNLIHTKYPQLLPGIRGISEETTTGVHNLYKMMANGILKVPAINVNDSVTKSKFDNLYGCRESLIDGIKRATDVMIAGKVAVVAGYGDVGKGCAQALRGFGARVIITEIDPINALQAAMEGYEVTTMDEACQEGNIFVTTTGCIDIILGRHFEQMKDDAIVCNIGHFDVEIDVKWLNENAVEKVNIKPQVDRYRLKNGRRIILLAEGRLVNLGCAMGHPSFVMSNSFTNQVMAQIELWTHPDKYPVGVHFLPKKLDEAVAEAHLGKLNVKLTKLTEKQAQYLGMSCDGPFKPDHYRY
Unit µM implied. Number only.

Nc1ncnc2c1ncn2C1O[C@H](CC(=O)OC2CC2(Cl)Cl)C(O)[C@H]1O (single isomer, unassigned) | 750

Let us examine a further case.
[ask] Requested field: Ki. Item: Nc1ncnc2c1ncn2C1O[C@H](CC(=O)OCCF)C(O)[C@H]1O (single isomer, unassigned)
[reply] 75
